Measured ATP (%) mean, Pseudomonas aeruginosa of individual entries
Tested on: Pseudomonas aeruginosa ATCC27853
Test: Antibacterial activity, ATP assay (BacTiter-Glo)
Type: cell-based
Details: Table 4-1; ATP assay concentration: peptides 10, TOB 1.0, CPFX 1.0, OX 0.5, MEPM 1.0 μg/ml
Method: The antibacterial activity of the polypeptides was measured using an ATP assay method. That is, using BacTiter-Glo Microbial Cell Viability Assay kit available from PROMEGA, the antibacterial activity of the peptides was evaluated from the viability of bacteria. […] The bacteria were cultured in media for 3 to 4 hours, and thereafter absorbances at A600 were measured. […] Relative values were calculated by comparison with the negative control, and these values were regarded as the viability. […]
Quick reminder: number only, in %, skip the unit.

These recorded examples may help you get a feel for the data.
INSERT INTO assay_data (compound, property, reading) VALUES
  ('Cc1onc(-c2ccccc2)c1C(=O)N[C@@H]1C(=O)N2[C@@H]1SC(C)(C)[C@@H]2C(=O)O [OX, oxacillin, reference compound]', 'ATP (%) mean, Pseudomonas aeruginosa', 83.1),
  ('NC[C@H]1O[C@H](O[C@H]2[C@H](O)[C@@H](O[C@H]3O[C@H](CO)[C@@H](O)[C@H](N)[C@H]3O)[C@H](N)C[C@@H]2N)[C@H](N)C[C@@H]1O [TOB, tobramycin, reference compound]', 'ATP (%) mean, Pseudomonas aeruginosa', 1.7),
  ('C[C@@H](O)[C@H]1C(=O)N2C(C(=O)O)=C(S[C@@H]3CN[C@H](C(=O)N(C)C)C3)[C@H](C)[C@H]12 [MEPM, meropenem, reference compound]', 'ATP (%) mean, Pseudomonas aeruginosa', 20.2);

Entry O=C(O)c1cn(C2CC2)c2cc(N3CCNCC3)c(F)cc2c1=O [CPFX, ciprofloxacin, reference compound] , ATP (%) mean, Pseudomonas aeruginosa reported as 2.3

Taken from patent US9376470B2.
